src = patent US20200239573A1

molecular target: T1, recombinant human PD-1 Fc chimera (human, UniProt Q15116 25-167); assay: SPR Biacore T200, PD-1-huFc amine-coupled, single cycle kinetics
T1 construct: Bought protein; also called human PD-1-huFc; huPD-1-Fc; not shown: human Fc
T1 sequence (Q15116 25-167 limits assumed, change not shown): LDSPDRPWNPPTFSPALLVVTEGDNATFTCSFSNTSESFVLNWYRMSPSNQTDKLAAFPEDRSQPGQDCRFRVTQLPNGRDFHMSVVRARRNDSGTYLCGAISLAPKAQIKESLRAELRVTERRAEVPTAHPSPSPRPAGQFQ
measurement name: kon
Could you write the number and then its unit?

Ask | Record request: kon value, item Humabody® 1.49 (VHH, human VH single domain antibody) VHH: QVQLVESGGGLVKPGGSLRLSCAASGFTFSDSSMSWMRQAPGKGLEWVSYISTGGGVKFYADSVKGRFTISRDNAKNSLYLQMNSLRADDTAVYYCAREAPLRLGESPHDAFDIWGQGTMVTVSS
Reply | 263000 M⁻¹ s⁻¹

Ask | Record request: kon value, item Humabody® 1.56 (VHH, human VH single domain antibody) VHH: QVQLVESGGGLVKPGGSLRLSCAASGFTFSDNSMTWMRQAPGKGLEWVSYISSGGAVKFYADSVKGRFTISRDNAKNSLYLQMNSLRADDTAVYYCAREAPLRLGESPHDAFDILGQGTMVTVSS
Reply | 432000 M⁻¹ s⁻¹

Ask | Record request: kon value, item Humabody® 1.92 (VHH, human VH single domain antibody) VHH: EVQLVESGGGLVKPGGSLRLSCAASGFTFSDESMTWMRQAPGKGLEWVSYISSGGGVKFYADSVKGRFTISRDNAKNSLYLQMNSLRAEDTAVYYCAREAPLRLGESPHDAFDISGQGTMVTVSS
Reply | 620000 M⁻¹ s⁻¹

Ask | Record request: kon value, item Humabody® 1.1 (VHH, human VH single domain antibody; also called VH single domain antibody 1.1; clone 1.1) VHH: QVQLVESGGGLVKPGGSLRLSCAASGFTFSDYTMTWMRQAPGKGLEWVSYISTGGTIKYYTDSVKGRFTISRDNAKNSLYLQMNSLRADDTAVYYCAREAPLRLGESPHDAFDIWGQGTMVTVSS
Reply | 109000 M⁻¹ s⁻¹

Ask | Record request: kon value, item Humabody® 1.43 (VHH, human VH single domain antibody) VHH: QVQLVESGGGLVKPGGSLRLSCAASGFTFSDSSMTWMRQAPGKGLEWVSYISSGGGVIFYADSVKGRFTISRDNAKNSLYLQMNSLRADDTAVYYCAREAPLRLGESPHDAFDIWGQGTMVTVSS
Reply | 410000 M⁻¹ s⁻¹

Ask | Record request: kon value, item Humabody® 1.51 (VHH, human VH single domain antibody) VHH: QVQLVESGGGLVKPGGSLRLSCAASGFTFSDSSMTWMRQAPGKGLEWVSYISSGGAVKFYTDSVKGRFTISRDNAKNSLYLQMNSLRADDTAVYYCAREAPLRLGESPHDAFDIWGQGTMVTVSS
Reply | 189000 M⁻¹ s⁻¹

Ask | Record request: kon value, item Humabody® 1.55 (VHH, human VH single domain antibody) VHH: QVQLVESGGGLVKPGGSLRLSCAASGFTFSDNSMTWMRQAPGKGLEWVSYISSGGGVKFYADSVKGRFTISRDNAKNSLYLQMNSLRADDTAVYYCAREAPLRLGESPHDAFDISGQGTMVTVSS
Reply | 535000 M⁻¹ s⁻¹

Ask | Record request: kon value, item Humabody® 1.42 (VHH, human VH single domain antibody) VHH: QVQLVESGGGLVKPGGSLRLSCAASGFTFSDNSMTWMRQAPGKGLEWVSYISSGGGVKFYADSVKGRFTISRDNAKNSLYLQMNSLRADDTAVYYCAREAPLRLGESPHDAFDIWGQGTMVTVSS
Reply | 532000 M⁻¹ s⁻¹

Ask | Record request: kon value, item Humabody® 1.50 (VHH, human VH single domain antibody) VHH: QVQLVESGGGLVKPGGSLRLSCAASGFTFSDNSMTWMRQAPGKGLEWVSYISSGGTIKFYADSVKGRFTISRDNAKNSLYLQMNSLRADDTAVYYCAREAPLRLGESPHDAFDIWGQGTMVTVSS
Reply | 402000 M⁻¹ s⁻¹

Ask | Record request: kon value, item Humabody® 1.48 (VHH, human VH single domain antibody) VHH: QVQLVESGGGLVKPGGSLRLSCAASGFTFSDSSMTWMRQAPGKGLEWVSYISSGGGVKFYADSVKGRFTISRDNAKNSLYLQMNSLRADDTAVYYCAREAPLRLGESPHDAFDIWGQGTMVTVSS
Reply | 496000 M⁻¹ s⁻¹

Ask | Record request: kon value, item Humabody® 1.54 (VHH, human VH single domain antibody) VHH: QVQLVESGGGLVKPGGSLRLSCAASGFTFSDDSMTWMRQAPGKGLEWVSYISSGGGVIFYADSVKGRFTISRDNAKNSLYLQMNSLRADDTAVYYCAREAPLRLGESPHDAFDIWGQGTMVTVSS
Reply | 530000 M⁻¹ s⁻¹
